system: primary equine dermal fibroblasts PriFi1; experiment: MTS cytotoxicity assay; format: cell-based, horse; details: PriFi1, 96 h; mean (95% CI)
Catalogue of IC50 readings, one per entry.
MEASUREMENT_TYPE: IC50 (µM)

SMILES_TEXT | RELATION_SYMBOL | VAL
C=C(C)[C@@H]1CC[C@]2(COS(N)(=O)=O)CC[C@]3(C)[C@H](CC[C@@H]4[C@@]5(C)CC[C@H](OS(N)(=O)=O)C(C)(C)[C@@H]5CC[C@]43C)[C@@H]12 | = | 28
C=C(C)[C@@H]1CC[C@]2(C(=O)OCC(N)(CO)CO)CC[C@]3(C)[C@H](CC[C@@H]4[C@@]5(C)CC[C@H](OC(C)=O)C(C)(C)[C@@H]5CC[C@]43C)[C@@H]12 | < | 1

====

test system: primary EMM cells MelDuWi; test: MTS cytotoxicity assay; format: cell-based, horse; conditions: 5 h, mean (95% CI)

SMILES_TEXT | IC50
C=C(C)[C@@H]1CC[C@]2(COS(N)(=O)=O)CC[C@]3(C)[C@H](CC[C@@H]4[C@@]5(C)CC[C@H](OS(N)(=O)=O)C(C)(C)[C@@H]5CC[C@]43C)[C@@H]12 | > 100 µM

====

Catalogue of pIC50 readings, one per entry.
tested on: primary ES cells sRGO1; assay: crystal violet staining assay (CVS), proliferation; format: cell-based, horse; conditions: sRGO1, 24 h; mean (95% CI)
pIC50: −log10 of the molar value.
MEASUREMENT_TYPE: pIC50

COMPOUND | MEASUREMENT_TYPE | VAL
C=C(C)[C@@H]1CC[C@]2(COS(N)(=O)=O)CC[C@]3(C)[C@H](CC[C@@H]4[C@@]5(C)CC[C@H](OS(N)(=O)=O)C(C)(C)[C@@H]5CC[C@]43C)[C@@H]12 [BBS] | pIC50 | 4.40
C=C(C)[C@@H]1CC[C@]2(C(=O)OCC(N)(CO)CO)CC[C@]3(C)[C@H](CC[C@@H]4[C@@]5(C)CC[C@H](OC(C)=O)C(C)(C)[C@@H]5CC[C@]43C)[C@@H]12 [NVX-207] | pIC50 | 5.15

====

tested on: primary equine dermal fibroblasts PriFi2; experiment: MTS cytotoxicity assay; type: cell-based, horse; details: PriFi2, 5 h; mean (95% CI)

MOLECULE | ASSAY_TARGET | RESULT_UNITS | RELATION_SYMBOL | IC50
C=C(C)[C@@H]1CC[C@]2(COS(N)(=O)=O)CC[C@]3(C)[C@H](CC[C@@H]4[C@@]5(C)CC[C@H](OS(N)(=O)=O)C(C)(C)[C@@H]5CC[C@]43C)[C@@H]12 [BBS] | primary equine dermal fibroblasts PriFi2 | µM | > | 100
C=C(C)[C@@H]1CC[C@]2(C(=O)OCC(N)(CO)CO)CC[C@]3(C)[C@H](CC[C@@H]4[C@@]5(C)CC[C@H](OC(C)=O)C(C)(C)[C@@H]5CC[C@]43C)[C@@H]12 [NVX-207] | primary equine dermal fibroblasts PriFi2 | µM | = | 20

====

tested on: primary ES cells sRGO2; test: MTS cytotoxicity assay; assay type: cell-based, horse; conditions: sRGO2, 5 h; mean (95% CI)

SMILES_TEXT | ASSAY_TARGET | IC50
C=C(C)[C@@H]1CC[C@]2(C(=O)OCC(N)(CO)CO)CC[C@]3(C)[C@H](CC[C@@H]4[C@@]5(C)CC[C@H](OC(C)=O)C(C)(C)[C@@H]5CC[C@]43C)[C@@H]12 | primary ES cells sRGO2 | 8 µM
C=C(C)[C@@H]1CC[C@]2(COS(N)(=O)=O)CC[C@]3(C)[C@H](CC[C@@H]4[C@@]5(C)CC[C@H](OS(N)(=O)=O)C(C)(C)[C@@H]5CC[C@]43C)[C@@H]12 | primary ES cells sRGO2 | > 100 µM

====

test system: equine sarcoid [ES] cells sRGO2; test: SRB assay after 96 h; format: cell-based, horse; settings: sRGO2, 96 h of drug exposure
Catalogue of IC50 readings, one per entry.

SMILES_TEXT | RESULT_UNITS | IC50
C=C(C)[C@@H]1CC[C@]2(C(=O)OCC(N)(CO)CO)CC[C@]3(C)[C@H](CC[C@@H]4[C@@]5(C)CC[C@H](OC(C)=O)C(C)(C)[C@@H]5CC[C@]43C)[C@@H]12 | µM | 3.1
C=C(C)[C@@H]1CC[C@]2(COS(N)(=O)=O)CC[C@]3(C)[C@H](CC[C@@H]4[C@@]5(C)CC[C@H](OS(N)(=O)=O)C(C)(C)[C@@H]5CC[C@]43C)[C@@H]12 | µM | 24.3

====

test system: primary equine dermal fibroblasts PriFi2; experiment: crystal violet staining assay (CVS), proliferation; format: cell-based, horse; details: PriFi2, 5 h; mean (95% CI)
pIC50: −log10 of the molar value.
MEASUREMENT_TYPE: pIC50

SMILES_TEXT | RELATION_SYMBOL | VAL
C=C(C)[C@@H]1CC[C@]2(COS(N)(=O)=O)CC[C@]3(C)[C@H](CC[C@@H]4[C@@]5(C)CC[C@H](OS(N)(=O)=O)C(C)(C)[C@@H]5CC[C@]43C)[C@@H]12 | < | 4.00
C=C(C)[C@@H]1CC[C@]2(C(=O)OCC(N)(CO)CO)CC[C@]3(C)[C@H](CC[C@@H]4[C@@]5(C)CC[C@H](OC(C)=O)C(C)(C)[C@@H]5CC[C@]43C)[C@@H]12 | = | 4.85

====

Test system: primary EMM cells eRGO1
Assay: crystal violet staining assay (CVS), proliferation
Format: cell-based, horse
Settings: eRGO1, 5 h; mean (95% CI)
Experimental: All cells used for the experiments originate from different horses. […] The proliferation assay was performed as published. […] The proportion of cells treated relative to untreated controls was determined by crystal violet staining and photometric absorbance measurement at the incubation time points mentioned above. […]
pIC50: −log10 of the molar value.

MOLECULE | RELATION_SYMBOL | pIC50
C=C(C)[C@@H]1CC[C@]2(C(=O)OCC(N)(CO)CO)CC[C@]3(C)[C@H](CC[C@@H]4[C@@]5(C)CC[C@H](OC(C)=O)C(C)(C)[C@@H]5CC[C@]43C)[C@@H]12 [NVX-207] | = | 5.00
C=C(C)[C@@H]1CC[C@]2(COS(N)(=O)=O)CC[C@]3(C)[C@H](CC[C@@H]4[C@@]5(C)CC[C@H](OS(N)(=O)=O)C(C)(C)[C@@H]5CC[C@]43C)[C@@H]12 [BBS] | < | 4.00

====

system: primary ES cells sRGO2; assay: crystal violet staining assay (CVS), proliferation; type: cell-based, horse; conditions: sRGO2, 24 h; mean (95% CI)
Catalogue of IC50 readings, one per entry.

MOLECULE | RELATION_SYMBOL | IC50 [µM]
C=C(C)[C@@H]1CC[C@]2(C(=O)OCC(N)(CO)CO)CC[C@]3(C)[C@H](CC[C@@H]4[C@@]5(C)CC[C@H](OC(C)=O)C(C)(C)[C@@H]5CC[C@]43C)[C@@H]12 [NVX-207] | < | 1
C=C(C)[C@@H]1CC[C@]2(COS(N)(=O)=O)CC[C@]3(C)[C@H](CC[C@@H]4[C@@]5(C)CC[C@H](OS(N)(=O)=O)C(C)(C)[C@@H]5CC[C@]43C)[C@@H]12 [BBS] | = | 38

====

Catalogue of pIC50 readings, one per entry.
system: primary ES cells sRGO1; experiment: MTS cytotoxicity assay; format: cell-based, horse; conditions: sRGO1, 5 h; mean (95% CI)
pIC50: −log10 of the molar value.

MOLECULE | RELATION_SYMBOL | pIC50
C=C(C)[C@@H]1CC[C@]2(C(=O)OCC(N)(CO)CO)CC[C@]3(C)[C@H](CC[C@@H]4[C@@]5(C)CC[C@H](OC(C)=O)C(C)(C)[C@@H]5CC[C@]43C)[C@@H]12 [NVX-207] | = | 5.05
C=C(C)[C@@H]1CC[C@]2(COS(N)(=O)=O)CC[C@]3(C)[C@H](CC[C@@H]4[C@@]5(C)CC[C@H](OS(N)(=O)=O)C(C)(C)[C@@H]5CC[C@]43C)[C@@H]12 [BBS] | < | 4.00
